molecular target: Adrenergic β2 (Homo sapiens, UniProt P07550); construct: Adherent H292 cells are removed from tissue culture flasks by treatment with Accutase™ cell detachment solution; endogenous in cells; host or cells: H292 cells; experiment: Adrenergic β2 mediated cAMP production in H292 cells (AlphaScreen), concentration response; type: cell-based; details: fraction relative to the maximum activity determined for formoterol
Sequence (P07550 whole entry): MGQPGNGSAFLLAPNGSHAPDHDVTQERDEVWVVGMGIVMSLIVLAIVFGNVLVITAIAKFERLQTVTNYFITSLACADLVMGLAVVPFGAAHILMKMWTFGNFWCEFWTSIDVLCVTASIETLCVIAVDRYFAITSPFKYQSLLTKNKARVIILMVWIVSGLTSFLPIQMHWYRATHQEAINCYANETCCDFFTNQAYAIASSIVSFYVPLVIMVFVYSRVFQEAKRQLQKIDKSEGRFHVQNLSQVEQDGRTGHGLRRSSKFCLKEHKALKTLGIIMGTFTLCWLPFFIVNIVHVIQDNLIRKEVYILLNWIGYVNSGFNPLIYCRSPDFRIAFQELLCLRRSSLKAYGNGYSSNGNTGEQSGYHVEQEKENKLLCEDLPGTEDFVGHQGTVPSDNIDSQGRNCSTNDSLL
Label scheme for β2 Intrinsic Activity: lower than 0.9 is not satisfied, 0.9 and above is satisfied.

Threshold query (β2 Intrinsic Activity >= 0.9) on CCN(CCNCCc1ccc(O)c2[nH]c(=O)sc12)C(=O)CCOCCc1ccc(OCCCN2CCC3(CC2)CN(C(=O)c2csc(C(C)C)n2)CCO3)cc1 [Example 62, ditrifluoroacetate]
not satisfied

Threshold query (β2 Intrinsic Activity >= 0.9) on CC(C)CN(CCNCCc1ccc(O)c2c1OCC(=O)N2)C(=O)CCOCCc1cccc(CCN2CCC3(CC2)CN(C(=O)c2csc(C(C)C)n2)CCO3)c1 [Example 40, ditrifluoroacetate]
satisfied

Threshold query (β2 Intrinsic Activity >= 0.9) on Cc1nc(C(=O)N2CCOC3(CCN(Cc4cccc(CCOCCC(=O)N(CCNCCc5ccc(O)c6[nH]c(=O)ccc56)C5CCCCC5)c4)CC3)C2)cs1 [Example 42, ditrifluoroacetate]
satisfied

Threshold query (β2 Intrinsic Activity >= 0.9) on CC(C)c1nc(C(=O)N2CCOC3(CCN(Cc4cccc(CCOCCC(=O)N(CCNCCc5ccc(O)c6[nH]c(=O)sc56)C5CCOCC5)c4F)CC3)C2)cs1 [Example 11, ditrifluoroacetate]
satisfied

Threshold query (β2 Intrinsic Activity >= 0.9) on CC(C)c1nc(C(=O)N2CCOC3(CCN(Cc4csc(CCOCCC(=O)N(CCNCCc5ccc(O)c6c5OCC(=O)N6)C5CCCCC5)c4)CC3)C2)cs1 [Example 56, ditrifluoroacetate]
satisfied

Threshold query (β2 Intrinsic Activity >= 0.9) on COCCCN(CCNCCc1ccc(O)c2c1OCC(=O)N2)C(=O)CCOCCc1cccc(CN2CCC3(CC2)CN(C(=O)c2csc(C(C)C)n2)CCO3)c1Cl [Example 71, ditrifluoroacetate]
satisfied

Threshold query (β2 Intrinsic Activity >= 0.9) on CC(C)c1nc(C(=O)N2CCOC3(CCN(Cc4cccc(CCOCCC(=O)N(CCNCCc5ccc(O)c6c5OCC(=O)N6)[C@H](C)c5ccccc5)c4F)CC3)C2)cs1 [Example 14, ditrifluoroacetate]
satisfied

Threshold query (β2 Intrinsic Activity >= 0.9) on CCCCN(CCNCCc1ccc(O)c2c1OCC(=O)N2)C(=O)CCOCCc1ccc(CCN2CCC3(CC2)CN(C(=O)c2csc(C(C)C)n2)CCO3)cc1 [Example 4, ditrifluoroacetate]
not satisfied

Threshold query (β2 Intrinsic Activity >= 0.9) on Cc1ccc(C(=O)N2CCOC3(CCN(Cc4cccc(CCOCCC(=O)N(CCNCCc5ccc(O)c6c5OCC(=O)N6)C5CCCCC5)c4)CC3)C2)s1 [Example 154]
satisfied

Threshold query (β2 Intrinsic Activity >= 0.9) on CCCC[C@@H](C)N(CCNCCc1ccc(O)c2c1OCC(=O)N2)C(=O)CCOCCc1cccc(CN2CCC3(CC2)CN(C(=O)c2csc(C(C)C)n2)CCO3)c1F [Example 18, ditrifluoroacetate]
satisfied

Threshold query (β2 Intrinsic Activity >= 0.9) on CCN(CCNCCc1ccc(O)c2c1OCC(=O)N2)C(=O)CCOCCc1cccc(CN2CCC3(CC2)CN(C(=O)c2csc(C(C)C)c2)CCO3)c1F [Example 74, ditrifluoroacetate]
not satisfied

Threshold query (β2 Intrinsic Activity >= 0.9) on CCc1nc(C(=O)N2CCOC3(CCN(Cc4cccc(CCOCCC(=O)N(CCNCCc5ccc(O)c6c5OCC(=O)N6)C5CCCC5)c4Cl)CC3)C2)cs1 [Example 33, ditrifluoroacetate]
satisfied

Threshold query (β2 Intrinsic Activity >= 0.9) on CCN(CCNCCc1ccc(O)c2[nH]c(=O)sc12)C(=O)CCOCCc1cccc(CN2CCC3(CC2)CN(C(=O)c2csc(C(C)C)n2)CCO3)c1Cl [Example 28, ditrifluoroacetate]
not satisfied

Threshold query (β2 Intrinsic Activity >= 0.9) on CC(C)c1nc(C(=O)N2CCOC3(CCN(Cc4cccc(COCCOCCC(=O)N(CCNCCc5ccc(O)c6c5OCC(=O)N6)C5CCCCC5)c4)CC3)C2)cs1 [Example 67, ditrifluoroacetate]
not satisfied

---

target: Adrenergic β2 (Homo sapiens, UniProt P07550); construct: Adherent H292 cells are removed from tissue culture flasks by treatment with Accutase™ cell detachment solution; endogenous in cells; host or cells: H292 cells; assay: Adrenergic β2 mediated cAMP production in H292 cells (AlphaScreen), concentration response; assay type: cell-based; conditions: 60 min, 300 μM rolipram, read-out: β2 pEC50 (converted)
Kindly state EC50 for each of the entries shown.
I only need the number, in nM, no unit after it.

State the recorded EC50 for this entry: CC(C)c1nc(C(=O)N2CCOC3(CCN(Cc4cccc(SCCCOCCC(=O)N(CCNCCc5ccc(O)c6c5OCC(=O)N6)C5CCCC5)c4)CC3)C2)cs1 [Example 54, ditrifluoroacetate]
100

State the recorded EC50 for this entry: CCN(CCNCCc1ccc(O)c2[nH]c(=O)sc12)C(=O)CCOCCc1ccc(CCN2CCC3(CC2)CN(C(=O)c2csc(C(C)C)n2)CCO3)cc1 [Example 1, ditrifluoroacetate]
31.6

State the recorded EC50 for this entry: CCCCN(CCNCCc1ccc(O)c2c1OCC(=O)N2)C(=O)CCOCCc1cccc(CCN2CCC3(CC2)CN(C(=O)c2csc(C(C)C)n2)CCO3)c1 [Example 34a]
15.8

State the recorded EC50 for this entry: CCCN(CCNCCc1ccc(O)c2[nH]c(=O)sc12)C(=O)CCOCCc1ccc(CCN2CCC3(CC2)CN(C(=O)c2csc(CC)n2)CCO3)cc1 [Example 3, ditrifluoroacetate]
200

State the recorded EC50 for this entry: CCN(CCNCCc1ccc(O)c2c1OCC(=O)N2)C(=O)CCOCCc1cccc(CN2CCC3(CC2)CN(C(=O)c2csc(C(C)C)n2)CCO3)c1F [Example 15, ditrifluoroacetate]
31.6

---

Kindly state EC50 for each of the entries shown.
target: Adrenergic β2 (Homo sapiens, UniProt P07550); construct: Adherent H292 cells are removed from tissue culture flasks by treatment with Accutase™ cell detachment solution; endogenous in cells; host or cells: H292 cells; experiment: Adrenergic β2 mediated cAMP production in H292 cells (AlphaScreen), concentration response; type: cell-based; details: 60 min, 300 μM rolipram, read-out: β2 pEC50 (converted)
I only need the number, in nM, no unit after it.

State the recorded EC50 for this entry: CC(C)c1nc(C(=O)N2CCOC3(CCN(Cc4csc(CCOCCC(=O)N(CCNCCc5ccc(O)c6c5OCC(=O)N6)C5CCCCC5)c4)CC3)C2)cs1 [Example 56, ditrifluoroacetate]
200

State the recorded EC50 for this entry: CCc1cc(C(=O)N2CCOC3(CCN(Cc4cccc(CCOCCC(=O)N(CC)CCNCCc5ccc(O)c6c5OCC(=O)N6)c4F)CC3)C2)cs1 [Example 24, ditrifluoroacetate]
79.4

State the recorded EC50 for this entry: CC(C)c1nc(C(=O)N2CCOC3(CCN(CCc4ccc(CCOCCC(=O)N(CCNCCc5ccc(O)c6c5OCC(=O)N6)C5CCCCC5)cc4)CC3)C2)cs1 [Example 2]
31.6

State the recorded EC50 for this entry: CCN(CCNCCc1ccc(O)c2c1OCC(=O)N2)C(=O)CCOCCc1cccc(CN2CCC3(CC2)CN(C(=O)c2csc(C(C)C)c2)CCO3)c1F [Example 74, ditrifluoroacetate]
100

State the recorded EC50 for this entry: CCCN(CCNCCc1ccc(O)c2c1OCC(=O)N2)C(=O)CCOCCc1cccc(CN2CCC3(CC2)CN(C(=O)c2csc(C(C)C)n2)CCO3)c1Cl [Example 29, ditrifluoroacetate]
39.8

---

target: Adrenergic β2 (Homo sapiens); construct: Adherent H292 cells are removed from tissue culture flasks by treatment with Accutase™ cell detachment solution; endogenous in cells; host or cells: H292 cells; test: Adrenergic β2 mediated cAMP production in H292 cells (AlphaScreen), concentration response; assay type: cell-based; settings: fraction relative to the maximum activity determined for formoterol
Label scheme for β2 Intrinsic Activity: lower than 1 is not fulfilled, 1 and above is fulfilled.

Threshold query (β2 Intrinsic Activity >= 1) on Cc1ccc(CN(CCNCCc2ccc(O)c3c2OCC(=O)N3)C(=O)CCOCCc2cccc(CN3CCC4(CC3)CN(C(=O)c3csc(C(C)C)n3)CCO4)c2F)cc1 [Example 22]
fulfilled

Threshold query (β2 Intrinsic Activity >= 1) on CCN(CCNCCc1ccc(O)c2[nH]c(=O)sc12)C(=O)CCOCCc1ccc(F)c(CN2CCC3(CC2)CN(C(=O)c2csc(C(C)C)n2)CCO3)c1 [Example 44]
fulfilled

Threshold query (β2 Intrinsic Activity >= 1) on CCC(CC)c1nc(C(=O)N2CCOC3(CCN(Cc4cccc(CCOCCC(=O)N(CC)CCNCCc5ccc(O)c6c5OCC(=O)N6)c4F)CC3)C2)cs1 [Example 9, ditrifluoroacetate]
not fulfilled

Threshold query (β2 Intrinsic Activity >= 1) on CC[C@@H](C)N(CCNCCc1ccc(O)c2c1OCC(=O)N2)C(=O)CCOCCc1cccc(CCN2CCC3(CC2)CN(C(=O)c2csc(C(C)C)n2)CCO3)c1 [Example 37, ditrifluoroacetate]
not fulfilled

Threshold query (β2 Intrinsic Activity >= 1) on CC(C)c1nc(C(=O)N2CCOC3(CCN(Cc4cccc(SCCOCCC(=O)N(C)CCNCCc5ccc(O)c6[nH]c(=O)sc56)c4)CC3)C2)cs1 [Example 55, ditrifluoroacetate]
not fulfilled
